log10 of GI50, CAKI-1, per-entry values.
outcome measure: log10 of GI50 (log10 of the value in nM)

compound: CCc1ccc(/C=N/NC(=O)c2[nH]c3ccc(Br)cc3c2-c2ccccc2)[nH]1
assay system: CAKI-1
log10 of GI50: 3.02

compound: O=C(N/N=C/c1cc(Br)c[nH]1)c1[nH]c2ccc(Br)cc2c1-c1ccccc1
assay system: CAKI-1
log10 of GI50: 2.52

compound: O=C(N/N=C/c1ccc(C(=O)N2CCOCC2)[nH]1)c1[nH]c2ccc(Br)cc2c1-c1ccccc1
assay system: CAKI-1
log10 of GI50: 3.16

compound: O=C(N/N=C/c1cc([N+](=O)[O-])c[nH]1)c1[nH]c2ccc(Br)cc2c1-c1ccccc1
assay system: CAKI-1
log10 of GI50: 2.72

compound: CCc1c[nH]c(/C=N/NC(=O)c2[nH]c3ccc(Br)cc3c2-c2ccccc2)c1
assay system: CAKI-1
log10 of GI50: 3.02

compound: CCOC(=O)c1cc(/C=N/NC(=O)c2[nH]c3ccc(Br)cc3c2-c2ccccc2)c[nH]1
assay system: CAKI-1
log10 of GI50: 3.51

compound: Cc1cc(C)c(/C=N/NC(=O)c2[nH]c3ccc(Br)cc3c2-c2ccccc2)[nH]1
assay system: CAKI-1
log10 of GI50: 3.50

compound: O=C(N/N=C/c1cc[nH]c1)c1[nH]c2ccc(Br)cc2c1-c1ccccc1
assay system: CAKI-1
log10 of GI50: 2.89

compound: O=C(N/N=C/c1cc(Br)c(Br)[nH]1)c1[nH]c2ccc(Br)cc2c1-c1ccccc1
assay system: CAKI-1
log10 of GI50: 3.14

compound: Cn1cccc1/C=N/NC(=O)c1[nH]c2ccc(Br)cc2c1-c1ccccc1
assay system: CAKI-1
log10 of GI50: 2.41

compound: CCOC(=O)c1c[nH]c(/C=N/NC(=O)c2[nH]c3ccc(Br)cc3c2-c2ccccc2)c1
assay system: CAKI-1
log10 of GI50: 3.16

compound: Cc1[nH]c(/C=N/NC(=O)c2[nH]c3ccc(Br)cc3c2-c2ccccc2)c(C)c1[N+](=O)[O-]
assay system: CAKI-1
log10 of GI50: 3.36

compound: O=C(N/N=C/c1[nH]ccc1Cl)c1[nH]c2ccc(Br)cc2c1-c1ccccc1
assay system: CAKI-1
log10 of GI50: 2.65

compound: CCOC(=O)c1ccc(/C=N/NC(=O)c2[nH]c3ccc(Br)cc3c2-c2ccccc2)[nH]1
assay system: CAKI-1
log10 of GI50: 2.98

compound: O=C(N/N=C/c1ccc[nH]1)c1[nH]c2ccc(Br)cc2c1-c1ccccc1
assay system: CAKI-1
log10 of GI50: 2.41

compound: O=C(N/N=C/c1ccc([N+](=O)[O-])[nH]1)c1[nH]c2ccc(Br)cc2c1-c1ccccc1
assay system: CAKI-1
log10 of GI50: 2.61

compound: O=C(N/N=C/c1cc(Cl)c[nH]1)c1[nH]c2ccc(Br)cc2c1-c1ccccc1
assay system: CAKI-1
log10 of GI50: 2.40

compound: CCc1cc[nH]c1/C=N/NC(=O)c1[nH]c2ccc(Br)cc2c1-c1ccccc1
assay system: CAKI-1
log10 of GI50: 3.78

###

GI50, EKVX: measured values

compound: O=C(N/N=C/c1cc(Br)c[nH]1)c1[nH]c2ccc(Br)cc2c1-c1ccccc1
result operator: =
GI50 (µM): 0.62

compound: O=C(N/N=C/c1cc[nH]c1)c1[nH]c2ccc(Br)cc2c1-c1ccccc1
result operator: =
GI50 (µM): 4.41

compound: O=C(N/N=C/c1[nH]ccc1Cl)c1[nH]c2ccc(Br)cc2c1-c1ccccc1
result operator: =
GI50 (µM): 2.66

compound: O=C(N/N=C/c1cc(Cl)c[nH]1)c1[nH]c2ccc(Br)cc2c1-c1ccccc1
result operator: =
GI50 (µM): 1.28

compound: O=C(N/N=C/c1cc(Br)c(Br)[nH]1)c1[nH]c2ccc(Br)cc2c1-c1ccccc1
result operator: =
GI50 (µM): 3.45

compound: CCOC(=O)c1ccc(/C=N/NC(=O)c2[nH]c3ccc(Br)cc3c2-c2ccccc2)[nH]1
result operator: =
GI50 (µM): 4.29

compound: CCc1cc[nH]c1/C=N/NC(=O)c1[nH]c2ccc(Br)cc2c1-c1ccccc1
result operator: =
GI50 (µM): 2.79

compound: O=C(N/N=C/c1cc([N+](=O)[O-])c[nH]1)c1[nH]c2ccc(Br)cc2c1-c1ccccc1
result operator: >
GI50 (µM): 100

compound: CCOC(=O)c1cc(/C=N/NC(=O)c2[nH]c3ccc(Br)cc3c2-c2ccccc2)c[nH]1
result operator: =
GI50 (µM): 7.14

compound: O=C(N/N=C/c1ccc(C(=O)N2CCOCC2)[nH]1)c1[nH]c2ccc(Br)cc2c1-c1ccccc1
result operator: =
GI50 (µM): 7.51

compound: CCOC(=O)c1c[nH]c(/C=N/NC(=O)c2[nH]c3ccc(Br)cc3c2-c2ccccc2)c1
result operator: =
GI50 (µM): 4.57

compound: Cc1[nH]c(/C=N/NC(=O)c2[nH]c3ccc(Br)cc3c2-c2ccccc2)c(C)c1[N+](=O)[O-]
result operator: =
GI50 (µM): 3.34

compound: O=C(N/N=C/c1ccc([N+](=O)[O-])[nH]1)c1[nH]c2ccc(Br)cc2c1-c1ccccc1
result operator: =
GI50 (µM): 5.37

compound: CCc1ccc(/C=N/NC(=O)c2[nH]c3ccc(Br)cc3c2-c2ccccc2)[nH]1
result operator: =
GI50 (µM): 0.453

compound: CCc1c[nH]c(/C=N/NC(=O)c2[nH]c3ccc(Br)cc3c2-c2ccccc2)c1
result operator: =
GI50 (µM): 0.448

compound: Cn1cccc1/C=N/NC(=O)c1[nH]c2ccc(Br)cc2c1-c1ccccc1
result operator: =
GI50 (µM): 0.641

compound: Cc1cc(C)c(/C=N/NC(=O)c2[nH]c3ccc(Br)cc3c2-c2ccccc2)[nH]1
result operator: =
GI50 (µM): 3.24

compound: O=C(N/N=C/c1ccc[nH]1)c1[nH]c2ccc(Br)cc2c1-c1ccccc1
result operator: =
GI50 (µM): 1.23
